# Tested on: Streptococcus pneumoniae (ATCC 6301)
# experiment.summary: Anti-microbial test, MIC by broth dilution method, Streptococcus pneumoniae
# Assay type: cell-based
# particulars: Streptococcus pneumoniae, ATCC6301; Tryptic Soy Broth with 7% fetal bovine serum, 37° C., 20 hours, 1% DMSO; read-out: MIC SP
property.measured: MIC (µg/mL)
Write down the numeric answer in µg/mL and omit the unit.

Guide cases for MIC, answers given:
compound: CC1(C)S[C@@H]2[C@H](NC(=O)[C@H](N)c3ccccc3)C(=O)N2[C@H]1C(=O)O [Ampicillin, reference compound]
property.measured: MIC
recorded.value: 0.01

compound: CC(C)=CCCC1=CC(c2c(O)cc3c(c2O)C(=O)CC(c2ccc(O)cc2O)O3)C(C(=O)c2ccc(O)cc2O)C(c2ccc(O)cc2O)C1 (stereo not shown) [P3-1]
property.measured: MIC
recorded.value: 30

compound: CC(C)=CCc1c(-c2ccc(O)cc2O)oc2c3c(cc(O)c2c1=O)OC(C)(C)C=C3 [P3-3]
property.measured: MIC
recorded.value: 100

// next entry
What is its MIC for Streptococcus pneumoniae (ATCC 6301)? Entry: CC(C)=CCc1c(O)ccc(C(=O)C2C(c3c(O)cc(O)c4c(=O)c(CC=C(C)C)c(-c5ccc(O)cc5O)oc34)C=C(C)CC2c2ccc(O)cc2O)c1O (stereo not shown) [P3-2]
10

* * *

Documented MIC across a set of compounds
# Tested on: Streptococcus pneumoniae (Erythromycin and Ampicillin Res. Clin. Isol.)
# experiment.summary: Anti-microbial test, MIC by broth dilution method, resistant Streptococcus pneumoniae
# Assay type: cell-based
# particulars: Streptococcus pneumoniae; clinical isolates; Tryptic Soy Broth with 7% fetal bovine serum, 37° C., 20 hours, 1% DMSO; read-out: MIC SP (EM & AM Res.)
Write down the numeric answer in µg/mL and omit the unit.

compound: CC(C)=CCCC1=CC(c2c(O)cc3c(c2O)C(=O)CC(c2ccc(O)cc2O)O3)C(C(=O)c2ccc(O)cc2O)C(c2ccc(O)cc2O)C1 (centres unmarked)
MIC (µg/mL): 10
--
compound: CC1(C)S[C@@H]2[C@H](NC(=O)[C@H](N)c3ccccc3)C(=O)N2[C@H]1C(=O)O [Ampicillin, reference compound]
MIC (µg/mL): 3
--
compound: CC(C)=CCc1c(-c2ccc(O)cc2O)oc2c(C3C=C(C)C[C@@H](c4ccc(O)cc4O)C3C(=O)c3ccc(O)cc3O)c(O)cc(O)c2c1=O (some centres unmarked) [P2-2]
MIC (µg/mL): 30
--
compound: CC(C)=CCc1c(-c2ccc(O)cc2O)oc2c3c(cc(O)c2c1=O)OC(C)(C)C=C3
MIC (µg/mL): 30

What is its MIC for Streptococcus pneumoniae (Erythromycin and Ampicillin Res. Clin. Isol.)? Entry: CC(C)=CCc1c(O)ccc(C(=O)C2C(c3c(O)cc(O)c4c(=O)c(CC=C(C)C)c(-c5ccc(O)cc5O)oc34)C=C(C)CC2c2ccc(O)cc2O)c1O (centres unmarked)
10
